Values were extracted from ChEMBL document CHEMBL3988442.

Entries and their Percent Effect
# Species: Homo sapiens
# PROCEDURE SUMMARY: To identify inhibition of the IFN signalling (Jak-Stat) pathway via expression of an eGFP reporter gene under the control of an IFN-stimulated response element (ISRE) containing MxA promoter.
# Assay type: functional
# Set-up: scale not given: direction of the effect not stated beside the values
# TEST CONTEXT: 30 µM

[
  {
    "COMPOUND": "CC(C)C(=O)N1CCCC(c2ncncc2-c2ccncc2)C1 (configuration not stated)",
    "Percent Effect, %": -4.43
  },
  {
    "COMPOUND": "Cn1cnc2c1C(COCC1CC1)CN(C(=O)Cc1ccsc1)C2 (configuration not stated)",
    "Percent Effect, %": 9.25
  },
  {
    "COMPOUND": "CCc1nnc(CNCC2CCN(CC(O)c3ccccc3)CC2)o1 (configuration not stated)",
    "Percent Effect, %": 14
  },
  {
    "COMPOUND": "Cc1csc(N2CCN(Cc3cnc(C)s3)CC2C)n1 (configuration not stated)",
    "Percent Effect, %": 52.1
  },
  {
    "COMPOUND": "CC(=O)N1CCn2c(C(=O)N(C)C)cnc2C1",
    "Percent Effect, %": 5.39
  },
  {
    "COMPOUND": "CNC(=O)CCCNCc1c(C)nn(C)c1N(C)C",
    "Percent Effect, %": -12.6
  },
  {
    "COMPOUND": "Cc1n[nH]c(=O)c2c(NC(=O)CN3CCCC(C(F)(F)F)C3)oc(C)c12 (configuration not stated)",
    "Percent Effect, %": -1.71
  },
  {
    "COMPOUND": "CCNc1cc2c(nn1)CCN(C(=O)c1ccc(CNC(C)=O)o1)C2",
    "Percent Effect, %": 5.79
  },
  {
    "COMPOUND": "O=C(CCc1cccnc1)N1CCCC(n2cncn2)C1 (configuration not stated)",
    "Percent Effect, %": -1.71
  },
  {
    "COMPOUND": "CC(C)n1[nH]c(=O)c2c1NC(=O)CC2c1cccc(OC(F)F)c1 (configuration not stated)",
    "Percent Effect, %": 27.6
  },
  {
    "COMPOUND": "CCn1ncnc1C1CC(=O)NCc2nc3ccccn3c21 (configuration not stated)",
    "Percent Effect, %": 14.8
  },
  {
    "COMPOUND": "CC(=O)Nc1cc(C(=O)N2CCOCC2c2ccc(C)o2)ccc1F (configuration not stated)",
    "Percent Effect, %": -20.8
  }
]
